- Read-out: Interleukin-8 (IL8), CXCL8 (gene 3576)
- test.name: BSK_CASM3C_IL8: BioMAP Diversity Plus: CASM3C Assay for Interleukin-8 (IL8) Biomarker Activity (AID 2283042);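 note: IL-8 protein level quantified by ELISA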
- condition.context: primary human coronary artery smooth muscle cells; actives raise or lower the signal
Activity calls are given as the source filed them. Rule for the calls: active = hit-call score of the fitted dose curve at least 0.9, where 1 is the maximum; inactive = score below 0.9.
Assign a class; possible classes are t (active), f (inactive)

compound	class
C[Si](Cl)(Cl)CCC(F)(F)C(F)(F)C(F)(F)C(F)(F)C(F)(F)C(F)(F)F	f
OCC(O)CC(F)(F)C(F)(F)C(F)(F)C(F)(F)F (stereo not given)	f
COC(F)(C(F)F)C(F)(F)F (stereo not given)	f

[Q] Please state the recorded outcome for this compound: NC(=O)C(F)(F)C(F)(F)C(F)(F)C(F)(F)C(N)=O
[A] f

[Q] Please state the recorded outcome for this compound: CCOC(=O)CC(=O)C(F)(F)C(F)(F)F
[A] f

[Q] Please state the recorded outcome for this compound: O=S(=O)(O)CCC(F)(F)C(F)(F)C(F)(F)C(F)(F)F
[A] f

[Q] Please state the recorded outcome for this compound: NS(=O)(=O)C(F)(F)C(F)(F)C(F)(F)C(F)(F)C(F)(F)C(F)(F)F
[A] f

[Q] Please state the recorded outcome for this compound: CCOC(C=C(C)CCC=C(C)C)OCC
[A] f

[Q] Please state the recorded outcome for this compound: FC(F)(F)C(F)(F)C(F)(F)CC1CO1 (stereo not given)
[A] f

[Q] Please state the recorded outcome for this compound: O=C1C=CC(=O)N1c1ccc(Cc2ccc(N3C(=O)C=CC3=O)cc2)cc1
[A] t

[Q] Please state the recorded outcome for this compound: O=C=Nc1cccc2c(N=C=O)cccc12
[A] f

[Q] Please state the recorded outcome for this compound: Cc1cnccn1
[A] f

[Q] Please state the recorded outcome for this compound: NC(=O)C(F)(F)C(F)(F)C(F)(F)C(F)F
[A] f

[Q] Please state the recorded outcome for this compound: CC(C)CCCC(C)CCO (stereo not given)
[A] f

[Q] Please state the recorded outcome for this compound: O=S(=O)(O)CCC(F)(F)C(F)(F)C(F)(F)C(F)(F)C(F)(F)C(F)(F)C(F)(F)C(F)(F)F
[A] f

[Q] Please state the recorded outcome for this compound: CCN(CCO)S(=O)(=O)C(F)(F)C(F)(F)C(F)(F)C(F)(F)C(F)(F)C(F)(F)C(F)(F)C(F)(F)F
[A] f

[Q] Please state the recorded outcome for this compound: Cc1cc(C)c(O)c(C(C)(C)C)c1
[A] f

[Q] Please state the recorded outcome for this compound: O=C1c2c(O)ccc(Nc3ccc(CCO)cc3)c2C(=O)c2c([N+](=O)[O-])ccc(O)c21
[A] t

[Q] Please state the recorded outcome for this compound: O=C(O)C(F)(F)OC(F)(F)C(F)(F)OC(F)(F)C(F)(F)OC(F)(F)F
[A] f

[Q] Please state the recorded outcome for this compound: CCN(CC)c1ccc(C=O)c(O)c1
[A] f
